// data source = patent US12144869B2

Biological target: T1, human ROR1-Fz (Homo sapiens, UniProt Q01973)
T1 construct: Frizzled (Fz, residues 165-305); His6 (C); purchased Acro Biosystems; host or cells: HEK293
T1 sequence (Q01973 165-305): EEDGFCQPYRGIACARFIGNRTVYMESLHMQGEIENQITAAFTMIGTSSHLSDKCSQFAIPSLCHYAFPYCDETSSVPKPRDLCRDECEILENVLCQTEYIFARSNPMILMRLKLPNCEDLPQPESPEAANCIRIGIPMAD
Assay: Biacore off-rate and kinetic analysis, ROR1-Fz
Format: binding
Conditions: Table 11; SP34 light chain
Description: Anti-Fc polyclonal antibodies were immobilized onto a CMS chip (GE Life Sciences) using amine coupling chemistry (from Amine Coupling Kit, GE Life Sciences). […] The data was fit with the Biacore T200 Evaluation software, using a 1-1 Langmuir binding model. KD (affinity, nM) was determined as a ratio of the kinetic rate constants calculated from the fits of the association and dissociation phases. […]
value kind: Biacore human ROR1-Fz ka (M⁻¹ s⁻¹)
Give just the number in M⁻¹ s⁻¹; leave the unit off.

query: # lookup: Biacore human ROR1-Fz ka of SRP1944-A07 w SP34 LC3: "initial antibody leads constructed with an SP34 light chain" (antibody, V domains shown) VH: EVQLVESGGGLVQPGGSLRLSCAASGFNITGYYIHWVRQAPGKGLEWVGYISPNSGSTYYADSVKGRFTISADTSKNTAYLQMNSLRAEDTAVYYCARDSRRYVRPFDYWGQGTLVTVSS VL: QTVVTQEPSLTVSPGGTVTLTCGSSTGAVTSGYYPNWFQQKPGQAPRGLIGGTKFLAPGTPARFSGSLLGGKAALTLSGVQPEDEAEYYCALWYSNRWVFGGGTQLTVTG
result: 597000

Now examine the next entry.
query: Data request, read-out Biacore human ROR1-Fz ka, for SRP2196-B04 (antibody, V domains shown) VH: EVQLVESGGGLVQPGGSLRLSCAASGFNITEYYIHWVRQAPGKGLEWVGYISPNSGATYQADSVKGRFTISADTSKNTAYLQMNSLRAEDTAVYYCARDSRRYVRGWDYWGQGTLVTVSS VL: QAVVTQESALTTSPGETVTLTCRSSTGAVTTSNYANWVQEKPDHLFTGLIGGTNKRAPGVPARFSGSLIGDKAALTITGAQTEDEAIYFCALWYSNLWVFGGGTKLTVL
result: 127000
